Data provenance: patent US5843750A

# System: sorbitol-6-phosphate dehydrogenase
# Format: biochemical, Comamonas sp. SY-77-1
# STUDY CONDITIONS: 1 mM metal ion on sorbitol-6-phosphate dehydrogenase; None = 100; 10 min
Answer each item with its documented Relateive activity.
Kindly provide the number alone.

Name the recorded Relateive activity of the item [Cl-].[K+] [KCl] in your answer. 100

Quick one: give measured Relateive activity for [Cl][Pb][Cl] [PbCl2] 2

Name the recorded Relateive activity of the compound listed here: [Cl-].[Li+] [LiCl] 100

For the compound [Ba+2].[Cl-].[Cl-] [BaCl2] , give its measured Relateive activity value. 32

Could you please provide reported Relateive activity for [Cl-].[Cl-].[Co+2] [CoCl2] ? Thanks! 100

# return recorded Relateive activity for input [Cl][Mn][Cl] [MnCl2] 40

Answer with the recorded Relateive activity for the compound listed here: [Cl-].[Cl-].[Zn+2] [ZnCl2] 6

Could you please provide reported Relateive activity for [Cl][Cu][Cl] [CuCl2] ? Thanks! 0

// fetch Relateive activity given entry [Cl-].[Cl-].[Mg+2] [MgCl2] 100

Quick one: give measured Relateive activity for [Cl-].[Cs+] [CsCl] 100

Tell me measured Relateive activity for [Ca+2].[Cl-].[Cl-] [CaCl2] please. 100

State its Relateive activity for this compound: [Cl][Ni][Cl] [NiCl2] 100

====

# TESTED ON: UniProtKB A0AAX3LD49
# Type: biochemical, Erwinia sp. SK-472-20
# Parameters: SK-472-20
# STUDY CONDITIONS: metal ion or chemical modifier 2 mM in the presence of 2 mM magnesium ion; None = 100
# Description: […] Reaction was terminated by adding 0.1N HCl 2 ml and optical density of the mixture was measured using 1.0 cm cell at 550 nm within 5 minutes (As). Also optical density of distilled water 20 μl in place of the enzyme solution was measured in the same manner as above as a blank test (Ab). Enzymatic activity is determined by difference in the absorption between the optical density of the enzyme solution (As) and the blank test (Ab), i.e. (As-Ab). […]
Give Relative activity (%) for every item shown.
State just the number; it will be interpreted in %.

For the compound "[Cl][Cu][Cl]" , report Relative activity (%). 0

Give me measured Relative activity (%), please, for this compound: "[N-]=[N+]=[N-].[Na+]" 123

Supply Relative activity (%) value. Item: "[Ca+2].[Cl-].[Cl-]" 44.6

For the compound "[Cl][Ni][Cl]" , give its measured Relative activity (%) value. 14.5

State its Relative activity (%): "[Cl-].[Li+]" 74.3

Complete the entry with Relative activity (%) for "[Cl-].[Cs+]" 85

Give me measured Relative activity (%), please, for this compound: "[Cl-].[Cl-].[Co+2]" 17.3

# return recorded Relative activity (%) for entry "[Cl-].[K+]" 180

====

# TESTED ON: sorbitol kinase (Enterobacter ludwigii, UniProt A0AAX3LD49)
# Sequence (A0AAX3LD49 entry or part of it): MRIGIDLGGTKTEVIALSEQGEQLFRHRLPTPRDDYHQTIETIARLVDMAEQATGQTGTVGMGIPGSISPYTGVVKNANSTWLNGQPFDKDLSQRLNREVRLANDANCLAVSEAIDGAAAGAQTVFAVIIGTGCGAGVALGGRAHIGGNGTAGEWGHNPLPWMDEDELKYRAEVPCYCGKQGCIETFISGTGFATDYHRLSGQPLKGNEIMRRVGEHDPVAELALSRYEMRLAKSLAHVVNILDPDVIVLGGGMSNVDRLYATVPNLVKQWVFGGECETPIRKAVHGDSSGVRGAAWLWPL
# Format: biochemical, Erwinia sp. SK-472-20
# Parameters: SK-472-20
# STUDY CONDITIONS: activity for ATP (final concentration 2 mM) set as 100%
EXPERIMENTAL ENDPOINT: Relative activity as phosphate donor (%)
Reply with just the number (in %).

Retrieve Relative activity as phosphate donor on sorbitol kinase (Enterobacter ludwigii, UniProt A0AAX3LD49); query "O=c1ccn([C@@H]2O[C@H](COP(=O)(O)OP(=O)(O)OP(=O)(O)O)[C@@H](O)[C@H]2O)c(=O)[nH]1" 3.6

Param request: Relative activity as phosphate donor | system sorbitol kinase (Enterobacter ludwigii, UniProt A0AAX3LD49) | item "Nc1ncnc2c1ncn2[C@@H]1O[C@H](COP(=O)(O)OP(=O)(O)OP(=O)(O)O)[C@@H](O)[C@H]1O" 100

Answer briefly: Relative activity as phosphate donor recorded on sorbitol kinase (Enterobacter ludwigii, UniProt A0AAX3LD49) for "Nc1nc2c(ncn2[C@@H]2O[C@H](COP(=O)(O)OP(=O)(O)OP(=O)(O)O)[C@@H](O)[C@H]2O)c(=O)[nH]1" 11.8

Provide measured Relative activity as phosphate donor on sorbitol kinase (Enterobacter ludwigii, UniProt A0AAX3LD49) for "O=c1[nH]cnc2c1ncn2[C@@H]1O[C@H](COP(=O)(O)OP(=O)(O)OP(=O)(O)O)[C@@H](O)[C@H]1O" please. 40.5
